TARGET DESC: furin, P09958;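 also: purified furin at 1:10 enzyme:substrate in 50 mM HEPES pH 7.5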
Sequence (P09958 whole entry): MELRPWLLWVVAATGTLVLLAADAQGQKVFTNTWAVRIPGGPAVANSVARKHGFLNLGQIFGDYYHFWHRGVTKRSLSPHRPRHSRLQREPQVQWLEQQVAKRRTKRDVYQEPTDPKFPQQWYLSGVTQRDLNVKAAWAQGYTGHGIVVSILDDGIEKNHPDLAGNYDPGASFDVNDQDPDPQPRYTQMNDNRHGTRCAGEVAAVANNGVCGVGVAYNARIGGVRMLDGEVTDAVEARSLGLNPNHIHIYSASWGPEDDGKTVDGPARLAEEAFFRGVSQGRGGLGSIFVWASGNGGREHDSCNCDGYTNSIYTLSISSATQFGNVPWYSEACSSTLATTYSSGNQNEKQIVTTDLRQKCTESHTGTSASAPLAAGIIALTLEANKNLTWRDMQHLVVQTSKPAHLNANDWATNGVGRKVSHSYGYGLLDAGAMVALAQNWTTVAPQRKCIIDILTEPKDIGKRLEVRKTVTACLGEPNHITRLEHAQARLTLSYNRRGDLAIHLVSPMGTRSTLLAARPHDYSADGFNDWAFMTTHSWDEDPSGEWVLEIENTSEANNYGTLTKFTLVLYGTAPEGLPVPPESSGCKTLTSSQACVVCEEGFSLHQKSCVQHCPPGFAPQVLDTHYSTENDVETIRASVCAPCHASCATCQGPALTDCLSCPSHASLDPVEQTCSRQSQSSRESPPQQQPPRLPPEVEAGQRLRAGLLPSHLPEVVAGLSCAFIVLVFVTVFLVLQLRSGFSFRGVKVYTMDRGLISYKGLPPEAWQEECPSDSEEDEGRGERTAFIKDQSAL
PROTOCOL: furin cleavage Z-score vs untreated control; higher = more cleavage, active = 3.5 or more, inactive = 1 or less, 8 variable residues between constant flanks
EXPERIMENTAL SETUP: 15 min
Some of the results follow. The true hit rate is not given.
What furin cleavage Z-score was measured for each of the following?
Returns: the value as a bare number; no unit string appended.

Query :: // furin cleavage Z-score lookup, key: CACNHRNRRRAGNASASA [FS-1624]
Result :: 5.63

Query :: # input sequence: CAVRKRLRRRAGNASASA [FS-106] ; wanted: its furin cleavage Z-score
Result :: 6.32

Query :: Consider the sequence shown here: CALKAKLMPQAGNASASA [HC1158] What is its recorded furin cleavage Z-score?
Result :: 0.58

Query :: Any idea what its furin cleavage Z-score is? The sequence is CAKKSRLRRRAGNASASA [FS-1131]
Result :: 0.557

Query :: What measured furin cleavage Z-score goes with CAGEGAVQWMAGNASASA [HC1115] ?
Result :: -0.502

Query :: What measured furin cleavage Z-score goes with CAPEKGGRKPAGNASASA [HC1445] ?
Result :: -1.91

Query :: What does the data say about its furin cleavage Z-score? Entry: CAFGRRLRRRAGNASASA [FS-1124]
Result :: 6.37
